Values were extracted from patent US20060074243A1.

molecular target: Human recombinant MMP-14 (Homo sapiens); construct: The catalytic domain enzyme was expressed in E. coli inclusion bodies, solubilized in urea; made in house; assay: In vitro MMP inhibition analysis (fluorogenic peptide substrate cleavage), Ki; assay type: biochemical; conditions: Table 2
observable: pKi
# pKi is unitless: minus log10 of the molar concentration; print number only

## Task Any idea what its pKi is? The molecule is O=C(NO)C1(S(=O)(=O)c2ccc(-c3ccc(CCC(F)(F)F)cc3)cc2)CCOCC1
## Result 6.52

## Task Any idea what its pKi is? The molecule is CCN1CCC(C(=O)NO)(S(=O)(=O)c2ccc(-c3ccc(-c4ccncc4)cc3)cc2)CC1
## Result 6.51

## Task Any idea what its pKi is? The molecule is COC/C(Cl)=C/c1cnc(-c2ccc(S(=O)(=O)C3(C(=O)NO)CCOCC3)cc2)cn1
## Result 5.95

## Task Any idea what its pKi is? The molecule is O=C(NO)C1(S(=O)(=O)c2ccc(-c3ccc(-c4ccncc4)cc3)cc2)CCOCC1
## Result 7.10

## Task Any idea what its pKi is? The molecule is O=C(NO)C1(S(=O)(=O)c2ccc(-c3ccc(C(F)(F)F)cn3)cc2)CCOCC1
## Result 7.18

## Task Any idea what its pKi is? The molecule is COCCO[C@H]1CC[C@](C(=O)NO)(S(=O)(=O)c2ccc(-c3cnc(CCC(F)(F)C(F)(F)F)cn3)cc2)CC1
## Result 6.20

## Task Any idea what its pKi is? The molecule is CCCCCc1ccc(-c2ccc(S(=O)(=O)C3(C(=O)NO)CCOCC3)cc2)c(F)c1
## Result 6.03

---

biological target: Human recombinant MMP-9 (Homo sapiens); construct: made in house; host or cells: MMP-9-transfected HT1080 cells (spent media); assay: In vitro MMP inhibition analysis (fluorogenic peptide substrate cleavage), Ki; format: biochemical; details: Table 2
Sequence (P14780 107-707 limits assumed): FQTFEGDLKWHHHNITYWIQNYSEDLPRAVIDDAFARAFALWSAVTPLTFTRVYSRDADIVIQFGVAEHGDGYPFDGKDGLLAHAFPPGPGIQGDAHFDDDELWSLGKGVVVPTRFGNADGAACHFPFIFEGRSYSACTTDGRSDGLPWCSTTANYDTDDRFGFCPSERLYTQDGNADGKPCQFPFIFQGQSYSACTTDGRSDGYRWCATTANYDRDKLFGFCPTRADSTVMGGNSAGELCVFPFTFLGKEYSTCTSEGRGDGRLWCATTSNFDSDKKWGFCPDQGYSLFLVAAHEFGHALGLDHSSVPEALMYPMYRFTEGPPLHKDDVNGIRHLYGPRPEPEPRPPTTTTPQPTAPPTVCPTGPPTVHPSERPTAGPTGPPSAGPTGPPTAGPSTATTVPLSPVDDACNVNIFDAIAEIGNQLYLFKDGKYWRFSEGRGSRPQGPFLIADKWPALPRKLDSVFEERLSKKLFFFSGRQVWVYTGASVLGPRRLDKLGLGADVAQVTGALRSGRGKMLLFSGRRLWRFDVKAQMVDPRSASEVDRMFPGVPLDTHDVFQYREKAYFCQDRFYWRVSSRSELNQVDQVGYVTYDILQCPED
observable: pKi
# pKi is unitless: minus log10 of the molar concentration; print number only

## Task I'm curious: which pKi was measured for CCN1CCC(C(=O)NO)(S(=O)(=O)c2ccc(-c3cnc(CCCC(F)(F)F)cn3)cc2)CC1 tested on Human recombinant MMP-9 (Homo sapiens)?
## Result 8.28

## Task I'm curious: which pKi was measured for O=C(NO)C1(S(=O)(=O)c2ccc(-c3ncccn3)cc2)CCOCC1 tested on Human recombinant MMP-9 (Homo sapiens)?
## Result 7.24

## Task I'm curious: which pKi was measured for O=C(NO)C1(S(=O)(=O)c2ccc(-c3cnc(CCCC(F)(F)F)cn3)cc2)CCN(C2CC2)CC1 tested on Human recombinant MMP-9 (Homo sapiens)?
## Result 9.03

## Task I'm curious: which pKi was measured for COCCOc1ccc(-c2ccc(S(=O)(=O)C3(C(=O)NO)CCN(C4CC4)CC3)cc2)cc1 tested on Human recombinant MMP-9 (Homo sapiens)?
## Result 9.14

## Task I'm curious: which pKi was measured for O=C(NO)C1(S(=O)(=O)c2ccc(-c3cnc(OCCCC(F)(F)F)cn3)cc2)CCOCC1 tested on Human recombinant MMP-9 (Homo sapiens)?
## Result 8.64

## Task I'm curious: which pKi was measured for O=C(NO)C1(S(=O)(=O)c2ccc(-c3cscc3-c3ccc(F)cc3)cc2)CCOCC1 tested on Human recombinant MMP-9 (Homo sapiens)?
## Result 6.53

## Task I'm curious: which pKi was measured for O=C(NO)C1(S(=O)(=O)c2ccc(-c3ccc(C(F)(F)F)cc3F)cc2)CCOCC1 tested on Human recombinant MMP-9 (Homo sapiens)?
## Result 8.67

## Task I'm curious: which pKi was measured for O=C(NO)C1(S(=O)(=O)c2ccc(-c3ccc(C(F)(F)F)cn3)cc2)CCOCC1 tested on Human recombinant MMP-9 (Homo sapiens)?
## Result 8.70

## Task I'm curious: which pKi was measured for O=C(NO)C1(S(=O)(=O)c2ccc(-c3cnc(OCC(F)(F)C(F)(F)F)cn3)cc2)CCN(C2CC2)CC1 tested on Human recombinant MMP-9 (Homo sapiens)?
## Result 9.32

## Task I'm curious: which pKi was measured for COCCN1CCC(C(=O)NO)(S(=O)(=O)c2ccc(-c3ccc(-c4ccccc4)cc3)cc2)CC1 tested on Human recombinant MMP-9 (Homo sapiens)?
## Result 10.05

## Task I'm curious: which pKi was measured for CCc1ccc(-c2ccc(S(=O)(=O)C3(C(=O)NO)CCOCC3)cc2)cc1 tested on Human recombinant MMP-9 (Homo sapiens)?
## Result 9.20

## Task I'm curious: which pKi was measured for O=C(NO)C1(S(=O)(=O)c2ccc(-c3ccc(CCC(F)(C(F)(F)F)C(F)(F)F)cn3)cc2)CCOCC1 tested on Human recombinant MMP-9 (Homo sapiens)?
## Result 7.45

## Task I'm curious: which pKi was measured for O=C(c1ccc2cc(-c3ccc(S(=O)(=O)C4(C(=O)NO)CCOCC4)cc3)ccc2c1)N1CCCCC1 tested on Human recombinant MMP-9 (Homo sapiens)?
## Result 7.46

## Task I'm curious: which pKi was measured for O=C(NC1CCCC1)c1ccc(-c2ccc(S(=O)(=O)C3(C(=O)NO)CCOCC3)cc2)nc1 tested on Human recombinant MMP-9 (Homo sapiens)?
## Result 7.55

## Task I'm curious: which pKi was measured for O=C(NO)C1(S(=O)(=O)c2ccc(-c3ccc(-n4cncn4)cc3)cc2)CCOCC1 tested on Human recombinant MMP-9 (Homo sapiens)?
## Result 8.72

## Task I'm curious: which pKi was measured for CCN1CCC(C(=O)NO)(S(=O)(=O)c2ccc(-c3ccc(OCCCCO)cc3)cc2)CC1 tested on Human recombinant MMP-9 (Homo sapiens)?
## Result 9.06
